Entries annotated with measured period change
# experiment_notes: circadian clock period modulators, cell-based, LOPAC library, luminescence reporter (AID 2774);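 also: values are relative to mean of DMSO wells on each plate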
# condition: circadian reporter cells, at 7 µM, actives lie on both sides
Activity calls are given as the source filed them. No rule for the calls is given here.
reported_metric: period change

smiles_input	reported_measurement
CC[C@H](C)C(=O)O[C@H]1CCC=C2C=C[C@H](C)[C@H](CC[C@@H]3C[C@@H](O)CC(=O)O3)[C@H]21	0.035 h (inactive)
c1cc(CN2CCCCC2)cc(OCCCNc2nc3ccccc3s2)c1	-0.085 h (inactive)
CNCCC=C1c2ccccc2CCc2ccccc21	0.025 h (inactive)
CC(C)OC(=O)C(C)(C)Oc1ccc(C(=O)c2ccc(Cl)cc2)cc1	0.08 h (inactive)
COc1cc(NS(C)(=O)=O)ccc1Nc1c2ccccc2nc2ccccc12	-0.215 h (inactive)
O=C(O)c1cc2cc(Cc3cccnc3)ccc2o1	0.065 h (inactive)

---

# measured_on: 6-phosphogluconate dehydrogenase, decarboxylating (Homo sapiens) (UniProt P52209)
# Sequence (P52209 whole entry, looked up): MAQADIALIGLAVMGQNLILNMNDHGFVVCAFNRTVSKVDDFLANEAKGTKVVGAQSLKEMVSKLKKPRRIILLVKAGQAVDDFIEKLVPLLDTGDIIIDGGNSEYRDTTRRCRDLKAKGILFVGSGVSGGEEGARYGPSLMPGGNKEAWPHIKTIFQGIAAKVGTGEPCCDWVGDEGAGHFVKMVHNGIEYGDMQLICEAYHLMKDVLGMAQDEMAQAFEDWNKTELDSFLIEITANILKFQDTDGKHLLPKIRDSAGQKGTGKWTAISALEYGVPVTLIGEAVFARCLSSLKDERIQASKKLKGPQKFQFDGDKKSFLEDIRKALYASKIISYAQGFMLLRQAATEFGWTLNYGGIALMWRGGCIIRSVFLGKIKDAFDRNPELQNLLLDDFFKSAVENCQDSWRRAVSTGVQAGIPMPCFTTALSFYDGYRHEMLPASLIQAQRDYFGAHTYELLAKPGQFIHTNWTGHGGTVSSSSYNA
# experiment_notes: 6PGD enzyme inhibitors, primary screen, biochemical, human, recombinant enzyme, NADPH absorbance (AID 1159550)
# condition: recombinant 6PGD, NADPH absorbance 341 nm; at 10 µM; stronger effect = higher value
Entries annotated with measured inhibition
reported_metric: inhibition (%)

compound	reported_metric	reported_measurement
CC(=O)NC(C(=O)O)C(C)(C)SN=O (stereo not given)	inhibition	3.72
CC(=O)OCC(=O)[C@@]1(O)CC[C@H]2[C@@H]3C[C@H](C)C4=CC(=O)C=C[C@]4(C)[C@H]3[C@@H](O)C[C@@]21C	inhibition	6.5
C[C@H]1C[C@H]2[C@@H]3CCC4=CC(=O)C=C[C@]4(C)[C@@]3(F)[C@@H](O)C[C@]2(C)[C@@]1(O)C(=O)CO	inhibition	-0.85
C[C@]12CC[C@@H](O)C[C@H]1CCc1ccccc12	inhibition	-3.83
CC(=O)O[C@@H]1CC(=O)[C@@]2(C)C(CC(=O)[C@]3(C)C2CC[C@@]2(C)[C@H](c4ccoc4)OC(=O)C4OC423)C1(C)C (stereo not given in full)	inhibition	9.95

---

# experiment_notes: liver-stage malaria parasite growth inhibition, primary screen, cell-based, HepG2, luciferase luminescence, HepG2 viability (AID 624349);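 also: 100% = mean of DMSO negative control wells on the same plate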
# condition: P. berghei liver stage in HepG2, luciferase luminescence, concentration not given here; stronger effect = lower value
Each entry belongs to exactly one class, chosen by where its parasite load remaining falls: low = under 50%, mid = from 50% up to 90%, high = 90% and over

compound	class
C[C@@H](O[C@H]1OCCN(Cc2n[nH]c(=O)[nH]2)[C@H]1c1ccc(F)cc1)c1cc(C(F)(F)F)cc(C(F)(F)F)c1	low
CN(Cc1ccc(C(C)(C)C)cc1)Cc1cccc2ccccc12	low
CC(=O)N(CC(O)CN(C(C)=O)c1c(I)c(C(=O)NCC(O)CO)c(I)c(C(=O)NCC(O)CO)c1I)c1c(I)c(C(=O)NCC(O)CO)c(I)c(C(=O)NCC(O)CO)c1I (stereo not given)	mid
C[C@H](O)C(=O)Nc1c(I)c(C(=O)NC(CO)CO)c(I)c(C(=O)NC(CO)CO)c1I	high
Cc1ccc(C(=O)c2cc(O)c(O)c([N+](=O)[O-])c2)cc1	low
COc1ccc(-c2cc(=S)ss2)cc1	mid
O=C(O)c1cc(=O)c2ccccc2[nH]1	high
COc1cc(/C=C/C(=O)O)ccc1O	high
O=C(Nc1cc(C(F)(F)F)cc(C(F)(F)F)c1)c1cc(Cl)ccc1O	low
C[C@]12CC[C@H]3C(=CCc4cc(O)ccc43)[C@@H]1CCC2=O	high
O=c1c(O)c(-c2ccc(O)cc2O)oc2cc(O)cc(O)c12	mid
O=C1OC(CN2CCOCC2)CN1/N=C/c1ccc([N+](=O)[O-])o1 (stereo not given)	low
CC(C)(Oc1ccc(C2CC2(Cl)Cl)cc1)C(=O)O (stereo not given)	mid
CCOC(=O)c1cnc2c(cnn2CC)c1NN=C(C)C	low
O=C(/C=C/c1ccccc1)c1ccc(O[C@@H]2O[C@H](CO)[C@@H](O)[C@H](O)[C@H]2O)cc1O	high
O=C(CCCCCCCCCCCCC1CCCC1)Nc1ccc(S(=O)(=O)c2ccc(NC(=O)CCCCCCCCCCCCC3CCCC3)cc2)cc1	mid
NS(=O)(=O)c1cc(C(=O)O)cc(N2CCCC2)c1Oc1ccccc1	mid
CC(=O)N[C@@H](CCC(=O)O)C(=O)O	high

---

# experiment_notes: HCT116 colon cancer cell growth inhibition, primary screen, CellTiter-Glo luminescence, NPC library (AID 1117342)
# condition: at 20 µM (top of the series)
The source made the active and inactive calls.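 How the source made its calls: active means compounds that lower survival of HCT116 colon cancer cells in the luminescence readout, no numeric limit stated; inactive means the rest.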
Classes used: active, inactive

molecule	class
CCCNC(C)C(=O)Nc1c(C)csc1C(=O)OC (configuration not stated)	inactive
C[C@]1(Cn2ccnn2)[C@H](C(=O)O)N2C(=O)C[C@H]2S1(=O)=O	inactive
CN(C)[C@@H](CCOc1cccc2ccccc12)c1ccccc1	active
NS(=O)(=O)c1ccc(C(=O)O)cc1	inactive
NS(=O)(=O)c1cc(C(=O)O)cc(N2CCCC2)c1Oc1ccccc1	inactive
CN(C)C(=O)COC(=O)Cc1ccc(OC(=O)c2ccc(N=C(N)N)cc2)cc1	inactive
COc1cc2c(cc1OC)[C@@H]1CC(=O)[C@@H](CC(C)C)CN1CC2	inactive
CNC(=O)c1ccccc1Sc1ccc2c(/C=C/c3ccccn3)n[nH]c2c1	inactive
O=C(O)c1nc(=O)[nH]c(=O)[nH]1	inactive
O=C(O)Cc1cccc2ccccc12	inactive
COCCOCC(OC)OC	inactive
CC(CN(C)C)C(C)(O)Cc1ccc(Cl)cc1 (configuration not stated)	inactive

---

# experiment_notes: decreased DLD-1 cellular survival, CellTiter-Glo luminescent readout, NPC compound collection, primary HTS (AID 1117346)
# condition: DLD-1 viability, CellTiter-Glo luminescence; at 20 µM (top of the series)
The source made the active and inactive calls.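 How the source made its calls: active means compounds that lower survival of DLD-1 colon cancer cells in the luminescence readout, no cutoff given; inactive means the rest.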
Classes used: active, inactive

compound	class
N=C(N=C(N)N)N1CCOCC1	inactive
CCOC(=O)c1ccc(O)cc1	inactive
Nc1c(CC(=O)O)cccc1C(=O)c1ccc(Br)cc1	active
CN(C)C/C=C(/c1ccc(Br)cc1)c1cccnc1	inactive
CCOCC(O)COc1ccc(NC(=O)CC[S+](C)C)cc1 (stereo unspecified)	inactive
NS(=O)(=O)c1ccc(C(=O)O)cc1	inactive

---

# experiment_notes: stimulators of nuclear beta-catenin in C2C12, primary screen, imaging, WNT3A-conditioned medium, mouse C2C12, NPC library (AID 1117326); also: reference of the scale not given here
# condition: at 10 µM, stronger effect = higher value
Active and inactive are the calls of the source. No stated cut-off is given here; in the data, active means nuclear beta-catenin stimulation mostly above about 4.2% (no sharp cut-off); inactive means mostly below about 10%.
reported_metric: nuclear beta-catenin stimulation

compound	reported_metric	reported_measurement
[O-][n+]1cccc(CO)c1	nuclear beta-catenin stimulation	-0.4% (inactive)
C[C@]12CCC(=O)C=C1CC[C@@H]1[C@@H]2CC[C@@]2(C)[C@H]1CC[C@]2(O)C(=O)CO	nuclear beta-catenin stimulation	0.3% (inactive)
CNC(=O)c1c(I)c(NC(C)=O)c(I)c(C(=O)O)c1I	nuclear beta-catenin stimulation	0.7% (inactive)
CN(C)CCN(Cc1ccc(Cl)cc1)c1ccccn1	nuclear beta-catenin stimulation	1.9% (inactive)
CCN(CC)C(=O)c1cccnc1	nuclear beta-catenin stimulation	2.1% (inactive)
Cc1oc(=O)oc1CN1CCN(c2cc3c(cc2F)c(=O)c(C(=O)O)c2n3C(C)S2)CC1 (stereo unspecified)	nuclear beta-catenin stimulation	0.8% (inactive)
C[C@]12CC[C@H]3[C@@H](CCC4=CC(=O)CC[C@@]43C)[C@@H]1CC[C@@H]2C(=O)CO	nuclear beta-catenin stimulation	3.8% (inactive)
CC(CNC1CCCCC1)OC(=O)c1ccccc1 (stereo unspecified)	nuclear beta-catenin stimulation	0.9% (inactive)
Nc1c(CC(=O)O)cccc1C(=O)c1ccc(Br)cc1	nuclear beta-catenin stimulation	-0.1% (inactive)
CC(=O)Oc1cc(C(F)(F)F)ccc1C(=O)O	nuclear beta-catenin stimulation	-0.6% (inactive)
COc1ccc(CCN(C)CCCN2CCc3cc(OC)c(OC)cc3CC2=O)cc1OC	nuclear beta-catenin stimulation	1.2% (inactive)

---

Entries annotated with measured mean signal
# experiment_notes: modulation of C. elegans fzo-1 (AID 1259413);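 also: fzo-1 mutant C. elegans worms in liquid wells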
# condition: C. elegans fzo-1 modulator screen, mean read-out; stronger effect = higher value
reported_metric: mean signal

compound	reported_measurement
Cc1cccc(C)c1NC(=O)C1CCCCN1C (stereo unspecified)	253
CC(C)NCC(O)COc1cccc2ccccc12 (stereo unspecified)	249
O=C(NCC1CCCCN1)c1cc(OCC(F)(F)F)ccc1OCC(F)(F)F (stereo unspecified)	257
CC(C)NCC(O)COc1ccc(CC(N)=O)cc1 (stereo unspecified)	244
O=C(CCCN1CCC(O)(c2ccc(Cl)cc2)CC1)c1ccc(F)cc1	271
CCCC(CCC)C(=O)O	274
NC(=O)c1cccnc1	256
Cc1cc(NS(=O)(=O)c2ccc(N)cc2)no1	252
CS(=O)(=O)c1ccc(C2=C(c3ccccc3)C(=O)OC2)cc1	215
COC(=O)C1=C(C)NC(C)=C(C(=O)OCCN(C)Cc2ccccc2)C1c1cccc([N+](=O)[O-])c1 (stereo unspecified)	246
CNCCC=C1c2ccccc2CCc2ccccc21	233
CN=C(N)NCCC[C@H](N)C(=O)O	269
COc1ccc2cc([C@H](C)C(=O)O)ccc2c1	264
COC(=O)[C@H](c1ccccc1Cl)N1CCc2sccc2C1	252
CC(CCc1ccccc1)NCC(O)c1ccc(O)c(C(N)=O)c1 (stereo unspecified)	243
Cc1ccc(N(CC2=NCCN2)c2cccc(O)c2)cc1	229
COc1cc(Cc2cnc(N)nc2N)cc(OC)c1OC	243
CN1CCN(CC/C=C2/c3ccccc3Sc3ccc(S(=O)(=O)N(C)C)cc32)CC1	215
N=c1nc(N2CCCCC2)cc(N)n1O	252
COc1ccc2c3c1O[C@H]1C[C@@H](O)C=C[C@@]31CCN(C)C2	226
CC(C)(C)NCC(O)c1ccc(O)c(CO)c1 (stereo unspecified)	230
CNCCC(Oc1ccc(C(F)(F)F)cc1)c1ccccc1 (stereo unspecified)	190
CCCCC(=O)N(Cc1ccc(-c2ccccc2-c2nn[nH]n2)cc1)[C@H](C(=O)O)C(C)C	250
CN(C)C(=O)C(CCN1CCC(O)(c2ccc(Cl)cc2)CC1)(c1ccccc1)c1ccccc1	201
CN1C(=O)CC[C@H]1c1cccnc1	242
OC[C@H]1O[C@@H](Oc2cc(O)cc(/C=C/c3ccc(O)cc3)c2)[C@H](O)[C@@H](O)[C@@H]1O	254
